Test system: SNB-19 cells
Assay: ATP content cell viability assay in ZIKV-infected SNB-19 cells
Assay type: cell-based
Conditions: Homo sapiens, SNB-19, read-out: IC50, cell viability
reportedMetric: IC50

>>> print(df.to_string())
                                   compound         result
0  C[C@H](NC(=O)C(=O)Nc1ccccc1C(C)(C)C)C(=O)N[C@@H](CC(=O)O)C(=O)COc1c(F)c(F)cc(F)c1F [Emricasan]  130 to 900 nM

====

Tested on: ZIKV
Assay: Intracellular ZIKV RNA levels
Assay type: cell-based, Zika virus
Settings: Zika virus, read-out: IC50, intracellular ZIKV RNA levels
pIC50: −log10 of the molar value.
reportedMetric: pIC50

                                   compound  studytarget  quantitativeresult
0  O=C(Nc1ccc([N+](=O)[O-])cc1Cl)c1cc(Cl)ccc1O [Niclosamide]         ZIKV                6.43
